System: Renilla
assayProcedure: Inhibition of recombinant renilla luciferase at 10 uM using coelenterazine as substrate incubated for 10 mins by luminescence based microplate reader analysis relative to control; values are per cent of control
measuredMetric: residual activity (%)

samplesmiles=COc1cc(C)ccc1S(=O)(=O)n1cnc(C)c1 measurementunits=% result=80
samplesmiles=CCOc1cc(C)c(C(C)C)cc1S(=O)(=O)n1cnc(C)c1 measurementunits=% result=70
samplesmiles=COc1cc(C)c(C(C)C)cc1S(=O)(=O)N(C)c1cc(C)ccc1C measurementunits=% result=100
samplesmiles=COc1cc(C)c(C(C)C)cc1S(=O)(=O)N(C)c1ccccc1C measurementunits=% result=100
samplesmiles=COc1cc(C)c(C(C)C)cc1S(=O)(=O)N(C)c1cccc(C)c1 measurementunits=% result=78
samplesmiles=COc1cc(C)c(C(C)C)cc1S(=O)(=O)N(C)c1ncccc1C measurementunits=% result=100
samplesmiles=COc1cc(C)c(C(C)C)cc1S(=O)(=O)N(C)c1cccc(C)c1C measurementunits=% result=93
